These measurements were taken from patent US10774051B2.

- target_or_test_system: human P2X7 receptor (Homo sapiens, UniProt Q99572, R270H/Y155H)
- test_method_notes: Evaluation of human P2X7 receptor inhibitory activity (Yo-Pro uptake, BzATP stimulation, FLIPR TETRA)
- Assay type: cell-based
- measurement_conditions: 1321N1 cells stably expressing human P2X7 receptor; BzATP stimulation, Yo-Pro uptake; read-out: IC50 (antagonistic activity for the human P2X7 receptor), class symbol
Reported IC50 values for the following molecules.

| molecule | target_or_test_system | IC50 |
| --- | --- | --- |
| COc1cn(Cc2ccccc2)c(Nc2cc(CO)c(C)cc2C)nc1=O [Compound I-0278] | human P2X7 receptor (Homo sapiens, UniProt Q99572, R270H/Y155H) | < 10 nM |
| COc1cn(Cc2cccc(Cl)c2)c(Nc2cc(C)c(OC(F)F)cc2C)nc1=O [Compound I-0299] | human P2X7 receptor (Homo sapiens, UniProt Q99572, R270H/Y155H) | 10 to 100 nM |
| COc1cn(Cc2ccc(F)c(Cl)c2)c(Nc2cc(C)cc3[nH]ccc23)nc1=O [Compound I-0396] | human P2X7 receptor (Homo sapiens, UniProt Q99572, R270H/Y155H) | < 10 nM |
| COc1cn(Cc2ccccc2)c(Nc2cc(C(C)C)ccc2C)nc1=O [Compound I-0143] | human P2X7 receptor (Homo sapiens, UniProt Q99572, R270H/Y155H) | 10 to 100 nM |
| Cc1c(Cl)cccc1Nc1nc(=O)c(CC(=O)NCc2ccccc2)cn1Cc1ccccc1 [Compound I-0341] | human P2X7 receptor (Homo sapiens, UniProt Q99572, R270H/Y155H) | 100 to 500 nM |
| CCOc1cc(C)c(Nc2nc(=O)c(OC)cn2Cc2ccc(F)c(F)c2)cc1C [Compound I-0260] | human P2X7 receptor (Homo sapiens, UniProt Q99572, R270H/Y155H) | < 10 nM |

Q: Provide the reported IC50 (system: human P2X7 receptor (Homo sapiens, UniProt Q99572, R270H/Y155H)) for COc1cn(Cc2ccc(F)c(Cl)c2)c(Nc2cccc3[nH]c(C)cc23)nc1=O [Compound I-0489]
Ans: < 10 nM

Q: Provide IC50, recorded with human P2X7 receptor (Homo sapiens, UniProt Q99572, R270H/Y155H), of Cc1c(Cl)cccc1Nc1nc(=O)c(Br)cn1Cc1ccccc1 [Compound I-0027]
Ans: 10 to 100 nM

Q: Report IC50 under test system human P2X7 receptor (Homo sapiens, UniProt Q99572, R270H/Y155H) for COc1cn(Cc2cccc(F)c2)c(Nc2cc(C)c(C)cc2C)nc1=O [Compound I-0177] .
Ans: < 10 nM

Q: State IC50 (human P2X7 receptor (Homo sapiens, UniProt Q99572, R270H/Y155H)) of COc1cc(C)c(Nc2nc(=O)c(OC)cn2Cc2ccccc2)cc1OC [Compound I-0182] .
Ans: < 10 nM

Q: Return reported IC50 for target or system human P2X7 receptor (Homo sapiens, UniProt Q99572, R270H/Y155H), item COc1cn(Cc2ccc(F)c(F)c2)c(Nc2cc3[nH]ncc3cc2C)nc1=O [Compound I-0491] .
Ans: < 10 nM

Q: Enter measured IC50, system human P2X7 receptor (Homo sapiens, UniProt Q99572, R270H/Y155H), for the molecule shown: COc1cn(Cc2cc(F)cc(F)c2)c(Nc2ccc(Cl)cc2C)nc1=O [Compound I-0563]
Ans: 10 to 100 nM

Q: Please report the measured IC50 for COc1cn(Cc2cccc(F)c2)c(Nc2cccc(Cl)c2C)nc1=O [Compound I-0039] tested on human P2X7 receptor (Homo sapiens, UniProt Q99572, R270H/Y155H).
Ans: 10 to 100 nM

Q: Recall the reported IC50 of CCc1cccc(Nc2nc(=O)c(OC)cn2Cc2ccccc2)c1CC [Compound I-0136] when tested on human P2X7 receptor (Homo sapiens, UniProt Q99572, R270H/Y155H).
Ans: < 10 nM

Q: Report IC50 on human P2X7 receptor (Homo sapiens, UniProt Q99572, R270H/Y155H) for this entry: COc1cn(Cc2ccc(F)c(Cl)c2)c(Nc2cc(-n3c(C)ccc3C)ccc2C)nc1=O [Compound I-0526]
Ans: 10 to 100 nM

Q: Enter recorded IC50 with human P2X7 receptor (Homo sapiens, UniProt Q99572, R270H/Y155H) for COc1ccc(Cl)c(Nc2nc(=O)c(OC)cn2Cc2ccccc2)c1 [Compound I-0152] here.
Ans: 100 to 500 nM

Q: Write IC50 of CCc1cc(OC)ccc1Nc1nc(=O)c(OC)cn1Cc1ccccc1 [Compound I-0235] ; system used: human P2X7 receptor (Homo sapiens, UniProt Q99572, R270H/Y155H)
Ans: 10 to 100 nM

Q: Find IC50 for COc1cn(Cc2ccccc2)c(Nc2cccc(C(F)(F)F)c2Cl)nc1=O [Compound I-0036] on human P2X7 receptor (Homo sapiens, UniProt Q99572, R270H/Y155H) and write it down.
Ans: 100 to 500 nM

Q: Fetch value of IC50 on human P2X7 receptor (Homo sapiens, UniProt Q99572, R270H/Y155H) for COc1cc(C)c(Nc2nc(=O)c(F)cn2Cc2ccc(F)cc2)cc1C [Compound I-0319] .
Ans: < 10 nM

Q: Give reported IC50 for Cc1c(Cl)cccc1NC(=O)Cc1cn(Cc2ccccc2)c(Nc2cccc(Cl)c2C)nc1=O [Compound I-0238] (human P2X7 receptor (Homo sapiens, UniProt Q99572, R270H/Y155H))
Ans: 100 to 500 nM
